# target-under-test: Drp1 (Homo sapiens (Human))
# Sequence (O00429 whole entry): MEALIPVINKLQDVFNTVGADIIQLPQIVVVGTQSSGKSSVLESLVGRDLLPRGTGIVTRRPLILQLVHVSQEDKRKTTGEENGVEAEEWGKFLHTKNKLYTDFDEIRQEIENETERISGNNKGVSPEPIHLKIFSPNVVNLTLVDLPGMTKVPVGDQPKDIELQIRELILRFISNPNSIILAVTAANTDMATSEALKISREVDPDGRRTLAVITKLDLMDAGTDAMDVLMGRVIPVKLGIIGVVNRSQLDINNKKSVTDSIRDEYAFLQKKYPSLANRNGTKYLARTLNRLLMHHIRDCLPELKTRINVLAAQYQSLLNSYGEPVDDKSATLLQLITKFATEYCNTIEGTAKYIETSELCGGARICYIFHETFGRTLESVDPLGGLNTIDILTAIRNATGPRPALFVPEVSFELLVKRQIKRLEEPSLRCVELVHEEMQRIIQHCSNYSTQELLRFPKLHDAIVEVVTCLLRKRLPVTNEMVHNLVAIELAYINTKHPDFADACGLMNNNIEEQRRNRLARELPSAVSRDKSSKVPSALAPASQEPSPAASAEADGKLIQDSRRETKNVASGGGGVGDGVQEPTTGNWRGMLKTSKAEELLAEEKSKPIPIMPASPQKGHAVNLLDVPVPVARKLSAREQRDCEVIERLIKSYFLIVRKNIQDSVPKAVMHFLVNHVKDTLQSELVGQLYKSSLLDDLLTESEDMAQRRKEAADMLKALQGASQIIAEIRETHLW
# protocol-notes: Drp1 Activity Screen: colorimetric (malachite green) GTPase assay
# Type: biochemical
# stated-conditions: GTPase activity; 0.6 μM Drp1 preincubated with 0.1 mg/mL liposomes, 1 mM GTP, 20 min at 37° C.
Could you please mark y for values of IC50 below 4 µM and n for values at or above it?

Please indicate whether the reported IC50 of Cc1cc(C(=O)Nc2ccccc2)n(Cc2csc(N3CCCCC3)n2)c1 is strictly below 4 µM.
y

Please check: IC50 for Cc1cc(C(=O)Nc2ccc(I)cc2)n(Cc2csc(N3CCCCC3)n2)c1 , strictly under 4 µM or not?
n

Confirm or reject: IC50 of O=C(O)c1ccc(NC(=O)c2cc(Cl)cn2Cc2csc(N3CCCCC3)n2)cc1 lies strictly below 4 µM
y

Does this molecule meet the criterion IC50 < 4 µM? Cc1cn(Cc2csc(N3CCCCC3)n2)c(C(=O)Nc2ccc(C(=O)O)cc2)c1C
n

Threshold test, IC50 < 4 µM: Cc1cc(C(=O)Nc2ccc(S(N)(=O)=O)cc2)n(Cc2csc(N3CCCCC3)n2)c1
y

Field: below-cutoff. Rule: recorded IC50 strictly less than 4 µM. Subject: Cc1ccc(C(=O)Nc2ccccc2)n1Cc1csc(N2CCCCC2)n1
n

Please state whether IC50 is below 4 µM for Cc1cc(C(=O)Nc2ccc(-c3nn[nH]n3)cc2)n(Cc2csc(N3CCCCC3)n2)c1
y

Answer whether the molecule Cc1cc(C(=O)Nc2ccc(-c3ccc(C(=O)O)cc3)cc2)n(Cc2csc(N3CCCCC3)n2)c1 has IC50 strictly less than 4 µM
y

Strictly below 4 µM in IC50? Cc1cc(C(=O)Nc2ccc(C(=O)O)c(C)c2)n(Cc2csc(N3CCCCC3)n2)c1
y

I'd appreciate it if you could check whether Cc1cc(C(=O)Nc2cccnc2)n(Cc2csc(N3CCCCC3)n2)c1 has IC50 smaller than 4 µM.
n

Regarding Cc1cc(C(=O)Nc2ccc(N3CCNC3=O)cc2)n(Cc2csc(N3CCCCC3)n2)c1 , kindly confirm whether its IC50 is beneath 4 µM.
n

Take the molecule O=C(Nc1ccc(CO)cc1)c1cc(Br)cn1Cc1csc(N2CCCCC2)n1 and say whether its IC50 is less than 4 µM.
y

Find out if reported IC50 for Cc1cc(C(=O)NC2CCCCC2)n(Cc2csc(N3CCCCC3)n2)c1 is less than 4 µM
y

IC50 strictly < 4 µM for this molecule? CC(=O)NS(=O)(=O)c1ccc(NC(=O)c2cc(C)cn2Cc2csc(N3CCCCC3)n2)cc1
n

Hello, is IC50 of the following molecule strictly smaller than 4 µM? Cc1cc(C(=O)NCc2ccccc2)n(Cc2csc(N3CCCCC3)n2)c1
n

Is IC50 of CCN(CC)c1nc(Cn2cc(C)cc2C(=O)Nc2ccc(C(=O)O)cc2)cs1 strictly below 4 µM?
n

Consider the molecule Cc1cc(C(=O)Nc2ccc(-c3ccoc3)cc2)n(Cc2csc(N3CCCCC3)n2)c1 . Is its IC50 strictly less than 4 µM?
y

For Cc1cc(C(=O)Nc2ccc(C(=O)O)cc2)n(Cc2csc(N3CCCCCC3)n2)c1 , is the recorded IC50 below the cut-off of 4 µM?
y
